Data credit: PubChem BioAssay

test: HepG2 cell viability effects, profiling panel, calcein-AM fluorescence, 48 h, basal (AID 1164); conditions: higher = more signal; also: test concentration not given here
Outcome: Y for z-score of at least -0.3; N for anything lower.

Worked examples follow.
CC(C)C[C@@H]1NC(=O)CNC(=O)[C@@]23C(=O)N[C@@H](Cc4ccccc4)C2[C@H](C)[C@@]2(C)O[C@H]2C3/C=C/C/C=C\CNC1=O (stereo partly specified)    Y
C[C@]1(C(=O)NCCN2CCOCC2)c2ccccc2C(=O)N(Cc2cc(F)cc(C(F)(F)F)c2)[C@H]1c1ccc(CO)cc1    Y
[N-]=[N+]=Nc1ccccc1C[C@]1(C(=O)O)N=C(c2ccc(OCCCO)cc2)O[C@H]1c1ccccc1N=[N+]=[N-]    Y
C=C(C)C1CCC(C(O)C2C=CC3C(=O)N(C)C(=O)C3N2Nc2cc(OC)c(OC)c(OC)c2)CC1 (stereo unspecified)    Y
CCCCCN1CC=CC23O[C@@H]4C=CCOC(=O)[C@@H]4[C@H]2C(=O)N(CCO)[C@@H]3C1=O (stereo partly specified)    Y
CCCC=C(CCC)[C@@H](NC(=O)CCc1ccccc1)c1ccc(C(F)(F)F)cc1    N
CC(=O)N1CC(C(O)C2C=CC3C(=O)NC(=O)C3N2Nc2ccc(Cl)cc2Cl)c2ccccc21 (stereo unspecified)    Y
CCCCC(=O)N(CCN1CCOCC1)[C@@H]1CC(C(=O)NCCO)=C[C@H](Oc2c(I)cc(CO)cc2OC)[C@H]1O    Y
[N-]=[N+]=NCc1ccccc1[C@@H]1OC(c2ccc(OCCCO)cc2)=N[C@]1(Cc1ccccc1)C(=O)NCCN1CCOCC1    Y
C=C(COC)C(=O)CC[C@@H](OC(=O)c1cccnc1)c1ccccc1OCCO    N

Switching to the query record.
Exercise: Determine whether measured z-score meets or exceeds -0.3 for C=C/C=C/[C@@H]1C(=C)CN([C@@H](Cc2ccccc2)C(=O)OC)[C@H]1[C@@H](O)Cc1ccccc1
Solution: Y
